Recorded measurements of Residual mutagenic activity (%) observed for 2-AA, one per entry
# Test system: Salmonella typhimurium strain TA 100
# TEST SUMMARY: Ames bio-assay, antimutagenic activity against 2-amino-anthracene (2-AA) with S9 Mix
# Type: cell-based
# TEST PARAMETERS: 100 μg compound added; 1 μg 2-AA per plate, S9 Mix
EXPERIMENTAL ENDPOINT: Residual mutagenic activity (%) observed for 2-AA

| COMPOUND | ENDPOINT RESULT |
| --- | --- |
| C/C=C/c1cc(OC)c2c(c1)[C@H](C)[C@@H](c1ccc(O)c(OC)c1)O2 [Licarin-A (16), Licarin-A] | 6 |
| C/C=C/c1cc(OC)c2oc(-c3ccc(O)c(OC)c3)c(C)c2c1 [Eupomatenoid-7 (7), Eupomatenoid-7] | 0 |
| CC=Cc1cc(OC)c2c(c1)C(C)C(c1ccc3c(c1)OCO3)O2 (single isomer, unassigned; (-)) [Eupomatenoid-8 (17)] | 73 |
| CC=Cc1cc(OC)c2oc(-c3ccc4c(c3)OCO4)c(C)c2c1 [Eupomatenoid-1 (8), Eupomatenoid-1] | 44 |
